// provenance: PubChem BioAssay AID2060898

# Tested on: 616215-338-R-J1-PDC complex spheroid viability
# experiment_summary: Anticancer human tumor 616215-338-R-J1-PDC patient-derived colon adenocarcinoma cell line growth inhibition [RAS]
# measurement_context: compound 0.03 µM; active compounds read low
endpoint: viability, T/C

| compound | endpoint | measured |
| --- | --- | --- |
| CCc1c2c(nc3ccc(O)cc13)-c1cc3c(c(=O)n1C2)COC(=O)[C@]3(O)CC | viability, T/C | 37.2% [middle of 4 runs] |
| CC1(C)CCC(Nc2ncc(C(F)(F)F)c(-c3c[nH]c4c(P(C)(C)=O)c(C#N)ccc34)n2)CN1 (centres undefined) | viability, T/C | 40.8% [middle of 4 runs] |
| CCn1c(-c2cc(N3CCN(C)CC3)cnc2C(C)OC)c2c3cc(ccc31)-c1csc(n1)CC(NC(=O)C1CC1C)C(=O)N1CCCC(N1)C(=O)OCC(C)(C)C2 (centres undefined) | viability, T/C | 53.7% [middle of 8 runs] |

Would you kindly look at the next entry?
Ask | Consider the compound shown here: CCn1c(-c2cccnc2C(C)OC)c2c3cc(ccc31)N1CCOC(CC(NC(=O)C(C(C)C)N(C)C(=O)C3(F)CCN(C(=O)C#CC(C)(C)N(C)C)CC3)C(=O)N3CCCC(N3)C(=O)OCC(C)(C)C2)C1 (centres undefined) What is its recorded viability, T/C?
Reply | 106% [middle of 8 runs]

====

Listed here are compounds together with their documented viability, T/C.
# System: 616215-338-R-J1-PDC complex spheroid viability
# experiment_summary: Anticancer human tumor 616215-338-R-J1-PDC cell line growth inhibition [RAS];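 further: spheroids exposed to agents for seven days before viability readout; 100% = DMSO vehicle control viability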
# measurement_context: second compound 0.003 µM; first compound 1 µM; active compounds read low

| compound | tested_target | measured |
| --- | --- | --- |
| Nc1ccn(C2OC(CO)C(O)C2(F)F)c(=O)n1 (centres undefined) + CCn1c(-c2cccnc2C(C)OC)c2c3cc(ccc31)N1CCOC(CC(NC(=O)C(C(C)C)N(C)C(=O)C3(F)CCN(C(=O)C#CC(C)(C)N(C)C)CC3)C(=O)N3CCCC(N3)C(=O)OCC(C)(C)C2)C1 | 616215-338-R-J1-PDC complex spheroid viability | 12.4% |
| C[C@@H](NC(=O)c1ncnc(N)c1Cl)c1ncc(C(=O)Nc2cc(C(F)(F)F)c(Cl)cn2)s1 + CCn1c(-c2cccnc2C(C)OC)c2c3cc(ccc31)N1CCOC(CC(NC(=O)C(C(C)C)N(C)C(=O)C3(F)CCN(C(=O)C#CC(C)(C)N(C)C)CC3)C(=O)N3CCCC(N3)C(=O)OCC(C)(C)C2)C1 | 616215-338-R-J1-PDC complex spheroid viability | 120% |
| CC1(O)CCCC1n1c(=O)c(C(F)F)cc2cnc(NC3CCN(S(C)(=O)=O)CC3)nc21 (centres undefined) + CCn1c(-c2cc(N3CCN(C)CC3)cnc2C(C)OC)c2c3cc(ccc31)-c1csc(n1)CC(NC(=O)C1CC1C)C(=O)N1CCCC(N1)C(=O)OCC(C)(C)C2 | 616215-338-R-J1-PDC complex spheroid viability | 36.8% |

Next up:
Ask | Data request, read-out viability, T/C, for C=CC(=O)N1CCN(c2nc(OCC3CCCN3C)nc3c(F)c(-c4nc(N)cc(C)c4C(F)(F)F)c(Cl)cc23)C(C)C1 (centres undefined) + CCn1c(-c2cc(N3CCN(C)CC3)cnc2C(C)OC)c2c3cc(ccc31)-c1csc(n1)CC(NC(=O)C1CC1C)C(=O)N1CCCC(N1)C(=O)OCC(C)(C)C2
Reply | 103%
